Below is a list of entries, each paired with its recorded Emax value.
Target: full-length zebrafish MR (Danio rerio, UniProt A6YIH7)
Construct: gene nr3c2; full-length, expressed in HEK293 cells
Sequence (A6YIH7 1-970): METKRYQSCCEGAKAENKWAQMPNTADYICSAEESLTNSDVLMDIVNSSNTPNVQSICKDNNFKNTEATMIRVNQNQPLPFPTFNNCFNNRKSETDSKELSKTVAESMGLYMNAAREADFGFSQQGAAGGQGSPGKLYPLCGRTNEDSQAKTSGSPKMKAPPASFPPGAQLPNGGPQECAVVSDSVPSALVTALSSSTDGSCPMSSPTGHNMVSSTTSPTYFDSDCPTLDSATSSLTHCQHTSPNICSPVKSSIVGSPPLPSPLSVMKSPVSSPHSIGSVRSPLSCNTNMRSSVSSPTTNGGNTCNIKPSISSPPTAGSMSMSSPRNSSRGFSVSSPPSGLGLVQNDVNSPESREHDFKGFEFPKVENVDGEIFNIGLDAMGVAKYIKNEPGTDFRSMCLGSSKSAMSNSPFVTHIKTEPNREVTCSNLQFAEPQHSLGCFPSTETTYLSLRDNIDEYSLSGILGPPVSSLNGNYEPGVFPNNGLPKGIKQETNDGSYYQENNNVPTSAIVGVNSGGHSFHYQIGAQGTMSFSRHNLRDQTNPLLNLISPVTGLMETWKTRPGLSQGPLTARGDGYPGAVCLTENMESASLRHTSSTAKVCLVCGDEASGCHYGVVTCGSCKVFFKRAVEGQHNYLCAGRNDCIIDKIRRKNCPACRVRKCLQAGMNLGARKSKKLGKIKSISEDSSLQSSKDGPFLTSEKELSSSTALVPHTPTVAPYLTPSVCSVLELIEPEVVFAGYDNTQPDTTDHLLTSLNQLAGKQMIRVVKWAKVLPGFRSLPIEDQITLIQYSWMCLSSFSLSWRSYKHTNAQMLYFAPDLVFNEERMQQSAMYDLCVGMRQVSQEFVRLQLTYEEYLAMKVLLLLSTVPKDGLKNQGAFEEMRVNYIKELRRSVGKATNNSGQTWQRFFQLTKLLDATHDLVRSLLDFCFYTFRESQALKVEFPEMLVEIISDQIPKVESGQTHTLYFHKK
Assay: cell-based
Design: transcriptional activation of full-length MR, MMTV-luciferase reporter, concentration-response
Details: HEK293; relative to aldosterone = 100%; read-out: % relative to Aldo

{"columns": ["compound", "Emax / %"],
 "data": [
  ["CC(=O)[C@H]1CC[C@H]2[C@@H]3CCC4=CC(=O)CC[C@@H]4[C@H]3CC[C@]12C", 83],
  ["CC(=O)[C@@]1(O)CC[C@H]2[C@@H]3CCC4=CC(=O)CC[C@]4(C)[C@H]3CC[C@@]21C [17OH-Prog]", 44],
  ["CC(=O)S[C@@H]1CC2=CC(=O)CC[C@]2(C)[C@H]2CC[C@@]3(C)[C@@H](CC[C@@]34CCC(=O)O4)[C@H]12", 54],
  ["CC(=O)[C@H]1CC[C@H]2[C@@H]3CCC4=CC(=O)CC[C@]4(C)[C@H]3CC[C@]12C", 77]
]}

----------
Biological target: truncated elephant shark MR (GAL4-DBD-MR-LBD) (Callorhinchus milii)
Construct: gene nr3c2
Sequence (A0A4W3I5J5 658-956 limits assumed): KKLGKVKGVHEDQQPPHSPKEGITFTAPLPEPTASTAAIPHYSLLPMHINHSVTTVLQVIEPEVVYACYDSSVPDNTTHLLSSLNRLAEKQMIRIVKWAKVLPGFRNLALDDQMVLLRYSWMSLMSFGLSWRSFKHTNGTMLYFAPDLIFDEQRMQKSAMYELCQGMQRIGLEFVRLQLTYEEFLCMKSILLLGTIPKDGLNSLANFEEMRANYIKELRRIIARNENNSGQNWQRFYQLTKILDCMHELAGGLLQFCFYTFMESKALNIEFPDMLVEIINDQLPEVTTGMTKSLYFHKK
Assay: cell-based
Set-up: transcriptional activation of truncated GAL4-DBD-MR-LBD, luciferase reporter, concentration-response
Details: HEK293; relative to aldosterone = 100%; read-out: % relative to Aldo

{"columns": ["compound", "measurement.target", "unit", "Emax"],
 "data": [
  ["C[C@]12CCC(=O)C=C1CC[C@@H]1[C@@H]2CC[C@@]2(C)[C@H]1CC[C@]2(O)C(=O)CO [S, 11-deoxycortisol]", "truncated elephant shark MR (GAL4-DBD-MR-LBD) (Callorhinchus milii)", "%", 77],
  ["CC(=O)[C@H]1CC[C@H]2[C@@H]3CCC4=CC(=O)CC[C@@H]4[C@H]3CC[C@]12C [19norProg]", "truncated elephant shark MR (GAL4-DBD-MR-LBD) (Callorhinchus milii)", "%", 98],
  ["C[C@]12CC[C@H]3[C@@H](CCC4=CC(=O)CC[C@@]43C)[C@@H]1CC[C@@H]2C(=O)CO [11-deoxycorticosterone]", "truncated elephant shark MR (GAL4-DBD-MR-LBD) (Callorhinchus milii)", "%", 81],
  ["CC(=O)S[C@@H]1CC2=CC(=O)CC[C@]2(C)[C@H]2CC[C@@]3(C)[C@@H](CC[C@@]34CCC(=O)O4)[C@H]12 [Spiron]", "truncated elephant shark MR (GAL4-DBD-MR-LBD) (Callorhinchus milii)", "%", 53]
]}
